CC50 values for the molecules below.
Test: in vitro
Conditions: human, MT2 cells
Description: Cytotoxicity against human MT2 cells assessed as reduction in cell viability
Give the quantity in µM, number only.

Reference set, count: 2
1. C=C(C)[C@@H]1CC[C@]2(NCCNC3CCN(S(C)(=O)=O)C3)CC[C@]3(C)[C@H](CC[C@@H]4[C@@]5(C)CC=C(c6ccc(C(=O)O)cc6)C(C)(C)[C@@H]5CC[C@]43C)[C@@H]12 (some centres undefined) : 10.7
2. C=C(C)[C@@H]1CC[C@]2(NC(=O)NCCN3CCS(=O)(=O)CC3)CC[C@]3(C)[C@H](CC[C@@H]4[C@@]5(C)CC=C(c6ccc(C(=O)O)cc6)C(C)(C)[C@@H]5CC[C@]43C)[C@@H]12 : 17.6

Given C=C(C)[C@@H]1CC[C@]2(NCCCN3CCS(=O)(=O)CC3)CC[C@]3(C)[C@H](CC[C@@H]4[C@@]5(C)CC=C(c6ccc(C(=O)O)cc6)C(C)(C)[C@@H]5CC[C@]43C)[C@@H]12 , respond with its CC50.
15.8

Given C=C(C)[C@@H]1CC[C@]2(NCCN3C[C@@H]4C[C@H]3CS4(=O)=O)CC[C@]3(C)[C@H](CC[C@@H]4[C@@]5(C)CC=C(c6ccc(C(=O)O)cc6)C(C)(C)[C@@H]5CC[C@]43C)[C@@H]12 , respond with its CC50.
7.34

Given C=C(C)[C@@H]1CC[C@]2(NCCN3C[C@@H]4C[C@H]3CN4S(C)(=O)=O)CC[C@]3(C)[C@H](CC[C@@H]4[C@@]5(C)CC=C(c6ccc(C(=O)O)cc6)C(C)(C)[C@@H]5CC[C@]43C)[C@@H]12 , respond with its CC50.
9.3
